Molecular target: human M2 receptor (Homo sapiens (Human))
Sequence (P08172 whole entry): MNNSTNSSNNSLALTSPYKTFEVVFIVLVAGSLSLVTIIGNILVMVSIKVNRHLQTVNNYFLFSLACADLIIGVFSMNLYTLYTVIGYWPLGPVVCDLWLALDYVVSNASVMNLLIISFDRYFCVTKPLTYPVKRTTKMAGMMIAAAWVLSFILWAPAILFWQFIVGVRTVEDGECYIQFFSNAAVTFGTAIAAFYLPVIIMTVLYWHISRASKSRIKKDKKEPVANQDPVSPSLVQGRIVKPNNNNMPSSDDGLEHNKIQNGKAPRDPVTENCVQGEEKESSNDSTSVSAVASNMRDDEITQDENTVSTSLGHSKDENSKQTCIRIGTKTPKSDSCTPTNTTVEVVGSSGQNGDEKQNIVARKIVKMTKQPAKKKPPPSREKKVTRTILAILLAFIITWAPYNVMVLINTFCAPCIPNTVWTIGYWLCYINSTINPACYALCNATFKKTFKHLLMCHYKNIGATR
Assay: In vitro M2 functional assay (intracellular calcium, FLiPR Tetra)
Type: cell-based
Settings: relative efficacy to an EC100 concentration of acetylcholine
Sorting guide: entries reporting M2 % RE beneath 40% go in the label 1 pile, the rest go in the label 0 pile.

>>> class("CCOC(=O)N1CCCC(N2CCC(c3cc(C(F)(F)F)cnc3OC)CC2)CC1 (stereo not drawn)")
"label 0"

In the record for CCOC(=O)N1CCCC(N2CCC(n3nccc3-c3cnn(C(C)C)c3)CC2)CC1 (stereo not drawn) , is M2 % RE less than 40%?
label 1

Please determine if CCOC(=O)N1CCCC(N2CCC(c3ncccc3OC)CC2)CC1 (stereo not drawn) is below 40% in terms of M2 % RE.
label 0

State whether 40% exceeds M2 % RE recorded for CCOC(=O)N1CCCC(N2CCC(n3nccc3C3CC3)CC2)CC1 (stereo not drawn) .
label 1

Say whether its M2 % RE is strictly beneath 40%. Entry: CCOC(=O)N1CCC(N2CCC(c3cccc(OCC)n3)CC2)CC1
label 1

M2 % RE strictly < 40% for this compound? CCOC(=O)N1CCCC(N2CCC(n3cccc3)CC2)CC1 (stereo not drawn)
label 1
